Each entry below lists one item and its recorded MIC value.
tested on: Candida albicans A-26; experiment: Agar plate disc diffusion test, MIC per disc; type: cell-based; conditions: 0.1M sodium borate, pH 7.5, 24 hours, 30° C.
Starred links: 1 amine or outer side, 2 acyl side, 3 side chain; linkers in the order of their positions; H or OH if unused. Positions of bridges follow the written chain, without caps; N, C: chain ends. Non-standard residues stand in square brackets, D forms with d. Residues, ends and D or L forms follow the SMILES beside them. *: point of attachment. Orn(4R-OH,5R-OH) = O=C([C@H](C[C@@H](O)[C@@H](O)N[*:3])N[*:1])[*:2]; hTyr(3S-OH,4S-OH) = N[C@H](C(=O)O)[C@H](O)[C@@H](O)c1ccc(O)cc1; Pro(3S-OH,4S-Me) = C[C@H]1CN[C@H](C(=O)O)[C@H]1O; X23 = CCCCCCCCS(=O)(=O)c1ccc(C(=O)*)cc1; Hyp = O=C(O)[C@@H]1C[C@@H](O)CN1; X15 = CCCCCCCCOc1cccc(CC(=O)*)c1; X9 = CCCCCCCCCCOc1cccc(C(=O)*)c1; X30 = CCCCCCCCOc1ccc(C(=O)*)cn1; X7 = CCCCCCCCSc1ccc(C(=O)*)cc1
Form entry: value (μg/disc) — number only.

| molecule | MIC (μg/disc) |
| --- | --- |
| CCCCCCCCOc1ccc(C(=O)N[C@H]2C[C@@H](O)[C@@H](O)NC(=O)[C@@H]3[C@@H](O)[C@@H](C)CN3C(=O)[C@H]([C@@H](C)O)NC(=O)[C@H]([C@H](O)[C@@H](O)c3ccc(O)cc3)NC(=O)[C@@H]3C[C@@H](O)CN3C(=O)[C@H]([C@@H](C)O)NC2=O)cn1 (X30-[Orn(4R-OH,5R-OH)]T[Hyp][hTyr(3S-OH,4S-OH)]T[Pro(3S-OH,4S-Me)]; lactam 1-C) | 80 |
| CCCCCCCCOc1cccc(CC(=O)N[C@H]2C[C@@H](O)[C@@H](O)NC(=O)[C@@H]3[C@@H](O)[C@@H](C)CN3C(=O)[C@H]([C@@H](C)O)NC(=O)[C@H]([C@H](O)[C@@H](O)c3ccc(O)cc3)NC(=O)[C@@H]3C[C@@H](O)CN3C(=O)[C@H]([C@@H](C)O)NC2=O)c1 [drawing 141] (X15-[Orn(4R-OH,5R-OH)]T[Hyp][hTyr(3S-OH,4S-OH)]T[Pro(3S-OH,4S-Me)]; lactam 1-C) | 5 |
| CCCCCCCCS(=O)(=O)c1ccc(C(=O)N[C@H]2C[C@@H](O)[C@@H](O)NC(=O)[C@@H]3[C@@H](O)[C@@H](C)CN3C(=O)[C@H]([C@@H](C)O)NC(=O)[C@H]([C@H](O)[C@@H](O)c3ccc(O)cc3)NC(=O)[C@@H]3C[C@@H](O)CN3C(=O)[C@H]([C@@H](C)O)NC2=O)cc1 [drawing 123] (X23-[Orn(4R-OH,5R-OH)]T[Hyp][hTyr(3S-OH,4S-OH)]T[Pro(3S-OH,4S-Me)]; lactam 1-C) | 20 |
| CCCCCCCCSc1ccc(C(=O)N[C@H]2C[C@@H](O)[C@@H](O)NC(=O)[C@@H]3[C@@H](O)[C@@H](C)CN3C(=O)[C@H]([C@@H](C)O)NC(=O)[C@H]([C@H](O)[C@@H](O)c3ccc(O)cc3)NC(=O)[C@@H]3C[C@@H](O)CN3C(=O)[C@H]([C@@H](C)O)NC2=O)cc1 [drawing 119] (X7-[Orn(4R-OH,5R-OH)]T[Hyp][hTyr(3S-OH,4S-OH)]T[Pro(3S-OH,4S-Me)]; lactam 1-C) | 0.312 |

Request: Bench note: what MIC did CCCCCCCCCCOc1cccc(C(=O)N[C@H]2C[C@@H](O)[C@@H](O)NC(=O)[C@@H]3[C@@H](O)[C@@H](C)CN3C(=O)[C@H]([C@@H](C)O)NC(=O)[C@H]([C@H](O)[C@@H](O)c3ccc(O)cc3)NC(=O)[C@@H]3C[C@@H](O)CN3C(=O)[C@H]([C@@H](C)O)NC2=O)c1 [drawing 128] (X9-[Orn(4R-OH,5R-OH)]T[Hyp][hTyr(3S-OH,4S-OH)]T[Pro(3S-OH,4S-Me)]; lactam 1-C) show?
Result: 2.5

The measured values listed here are drawn from patent US4293489A.
